# measurement target: T1, human TGFbR1 ECD-133-huFc (human)
# T1 chain: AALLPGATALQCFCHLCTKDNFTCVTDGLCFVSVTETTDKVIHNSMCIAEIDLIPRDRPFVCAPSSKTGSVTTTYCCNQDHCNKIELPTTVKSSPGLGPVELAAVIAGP
# assay summary: ELISA
quantity measured: EC50 (µg/mL)
Kindly provide the numeric value in µg/mL only, without the unit symbol.

Q. Look up and report measured EC50 for this entry: YU772-G12 (antibody, V domains shown) VH: EVQLLESGGGLVQPGGSLRLSCAASGFPFSTYAMSWVRQAPGKGLEWVSAISGSGGYTYYADSVKGRFTISRDNSKNTLYLQMNSLRAEDTAVYYCARVVGYVYGGSYGGGMDYWGQGTLVTVSS VL: DIQMTQSPSSLSASVGDRVTITCRASQSISSYLNWYQQKPGKAPKLLIYAASSLQSGVPSRFSGSGSGTDFTLTISSLQPEDFATYYCQQGYGPLTFGQGTKLEIK
A. 0.0213
